These entries and their values trace back to PubChem BioAssay.

# testedSystem: Carbonic anhydrase 2 (Homo sapiens)
# assayProcedure: CAII small-molecule binders, profiling panel, biochemical, small-molecule microarray, Alexa647-labelled CAII (AID 1122)
# protocolConditions: CAII-A647 binding fluorescence, higher = more signal
quantity: composite z-score

For the compound shown here, NC(=O)NCC#Cc1ccc2c(c1)[C@]1(C(=O)N2)[C@H](C(=O)N2CCCCCCC2)[C@H]2C(=O)O[C@H](c3ccccc3)[C@H](c3ccccc3)N2[C@@H]1c1ccccc1OCCO , give the reported composite z-score. 0.953

What do we get for [N-]=[N+]=NCc1ccccc1C[C@]1(C(=O)N2CCCCC2)N=C(c2ccc(OCCCO)cc2)O[C@H]1c1ccccc1CN=[N+]=[N-] ? 0.441

What do we get for CC(C)[C@H]1NC(=O)[C@@]23C(=O)N[C@@H](Cc4ccccc4)C2[C@H](C)[C@@]2(C)O[C@H]2C3/C=C/C/C=C\CNC(=O)[C@H](C)NC1=O (stereo partly drawn) ? 0.811

What do we get for C=C(COC)/C(=C/C[C@@H](OC(C)=O)c1cccc(OCCO)c1)c1cc(C(=O)OC)ccc1OC ? 0.402

What do we get for COc1ccc([Si](C)(C)[C@H]2[C@H](CC(=O)N(CCO)Cc3ccccc3)O[C@@]3(C(=O)N(C)c4ccccc43)[C@@H]2C)cc1 ? 0.384

What do we get for C=CCNC(=O)[C@@H]1[C@H]2C(=O)O[C@H](c3ccccc3)[C@H](c3ccccc3)N2[C@H](c2ccc(OCCO)cc2)[C@@]12C(=O)N(C(=O)OCCOC)c1ccc(C#CC3(O)CCCCCC3)cc12 ? 0.572

What do we get for CCOC(=O)C[C@H]1[C@H](OC(=O)c2ccccc2-c2ccccc2)[C@@H](NC(=O)c2ccc(-c3ccccc3)cc2)c2cc(OCCCO)ccc2N1C(=O)Cc1ccc(OC)cc1 ? -0.0176

What do we get for CO[C@H]1COC(=O)CC=C[C@H](C)[C@@H](OC)COC(=O)CC=C[C@@H]1C ? -0.782

What do we get for [N-]=[N+]=NCc1ccccc1[C@H]1OC(c2ccc(OCCCO)cc2)=N[C@@]1(Cc1ccccc1N=[N+]=[N-])C(=O)NCc1ccccc1 ? 0.579

What do we get for Cc1ccc([C@@H]2CC=C(C(=O)O)[C@H](c3ccccc3)N2S(=O)(=O)c2ccc(C)cc2)cc1 ? 0.546

What do we get for O=C(CS)NCCCCCCNC(=O)[C@@H]1C[C@@H]2C(=O)N[C@@H](Cc3ccccc3)C(=O)N2[C@@H]1c1ccc(O)cc1 ? 0.636

What do we get for COCCOC(=O)N1C(=O)[C@@]2(c3cc(C#CC4=CCCCC4)ccc31)[C@H](C(=O)NC[C@H](O)c1ccccc1)[C@H]1C(=O)O[C@H](c3ccccc3)[C@H](c3ccccc3)N1[C@@H]2c1ccccc1OCCO ? 0.358

What do we get for CCCC[C@H]1OB(O)C[C@H]2C1=C(COC)C[C@H]1C(=O)N(Cc3ccccc3)C(=O)[C@H]12 ? 0.606
